Numbers sourced from PubChem BioAssay (NCI).

Test system: SF-539 CNS
protocol details: NCI-60 one-dose screen, 48 h (100 = growth as untreated, 0 = no growth, -100 = all killed)
measurement setup: 10 µM unless noted
Procedure: Cells are grown in 96 well plates and exposed to the test compound for 48 hours. Compounds are tested at a single concentration, which is 10^-5 M for most compounds. The reported endpoint is percent growth (GI% or GIPRCNT), where numbers from 0 - 100% represent growth inhibition, and numbers from -100% - 0 represent cell death. For example, a value of 40 represents 60% growth inhibition. A value of 0 means no net growth occurred over the course of the experiment. […]
The panel holds about 83,000 compounds, 20% with a hit somewhere; the sample as a whole holds those more often.

| compound | growth / % |
| --- | --- |
| CN1C(=O)/C(=C2\SC(=Nc3ccccc3)N(Nc3ccccc3)C2=O)c2ccccc21 | 94.9 |
| C=C1C(=O)O[C@H]2[C@H]1CC/C(CNC(=O)c1c[nH]c3ccc(F)cc13)=C\CC[C@@]1(C)O[C@@H]21 | -42.6 |
| NNCCc1ccc(NC(=O)CCCc2ccc(C(=O)Nc3ccccc3N)cc2)cc1 | 60.8 |
| COc1ccc(/C=C2\COc3ccc(O)cc3C2=O)cc1 | 102 |
| O=C(O)c1cn(C2CC2)c2cc(N3CCN(C(=O)Nc4nc(-c5ccc(Br)cc5)cs4)CC3)c(F)cc2c1=O | 23.6 |
| Cc1ccc(C2CC(c3nc(-c4ccc(Cl)cc4)oc3C)=NN2C(=O)c2ccncc2)cc1 (stereo not given) | 89.5 |
| O=[N+]([O-])c1cc(NS(=O)(=O)c2ccccc2)ccc1NS(=O)(=O)c1ccccc1 | 118 |
| COc1ccc(N2CCC(=S)NC2=S)cc1 | 99.9 |
| Cc1ccc2c(=O)cc(C(=O)Nc3sc4c(c3C(=O)NCc3cccnc3)CCCC4)oc2c1C | 98.1 |
| CN(Cc1cc(Br)cc(Br)c1O)Cc1cc(Br)cc(Br)c1O | 39.5 |
